FYI, the data here is from patent US12091402B2.

MEASUREMENT_TARGET: ASGPR receptor on the cell surface (HepG2 cells) (Homo sapiens)
Construct: host or cells: HepG2
Sequence (P07306 whole entry): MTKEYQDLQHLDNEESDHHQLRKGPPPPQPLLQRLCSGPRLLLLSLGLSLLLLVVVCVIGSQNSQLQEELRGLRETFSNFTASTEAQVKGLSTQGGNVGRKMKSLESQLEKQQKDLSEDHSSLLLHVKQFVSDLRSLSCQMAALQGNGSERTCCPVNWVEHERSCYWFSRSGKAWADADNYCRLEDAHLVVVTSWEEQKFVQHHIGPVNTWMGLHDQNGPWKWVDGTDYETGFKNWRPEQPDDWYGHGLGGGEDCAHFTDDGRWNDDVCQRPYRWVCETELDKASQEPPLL
Sequence (P07307 whole entry partner): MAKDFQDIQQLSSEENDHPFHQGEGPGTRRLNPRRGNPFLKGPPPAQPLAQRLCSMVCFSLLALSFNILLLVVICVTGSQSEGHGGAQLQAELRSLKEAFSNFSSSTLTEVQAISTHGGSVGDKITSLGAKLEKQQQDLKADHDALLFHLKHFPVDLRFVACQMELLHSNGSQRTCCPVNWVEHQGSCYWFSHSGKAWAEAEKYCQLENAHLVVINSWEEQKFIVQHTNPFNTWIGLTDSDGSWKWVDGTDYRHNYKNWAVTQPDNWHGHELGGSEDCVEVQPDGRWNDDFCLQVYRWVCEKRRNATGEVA
MEASUREMENT_NOTES: Ternary complex formation assay (flow cytometry, HepG2)
Assay type: cell-based
pEC50: −log10 of the molar value.

{"MOLECULE": "CC(C)C[C@@H]1NC(=O)[C@H](Cc2c[nH]cn2)NC(=O)[C@H](Cc2c[nH]c3ccccc23)NC(=O)[C@H](C)NC(=O)[C@@H]2CSSC[C@H](NC(=O)[C@H](Cc3c[nH]c4ccccc34)NC(=O)[C@H](C(C)C)NC(=O)[C@H](CC(C)C)NC(=O)[C@H](CCC(=O)O)NC(=O)CNC1=O)C(=O)N[C@@H]([C@@H](C)O)C(=O)N1CCC[C@@H]1C(=O)N1C[C@@H](NC(=O)CCOCCOCCOCCNC(=O)CCCc3cn(C[C@@]45CO[C@@H](O4)[C@H](Nc4nc(Cl)ns4)[C@@H](O)[C@H]5O)nn3)C[C@H]1C(=O)N[C@@H](CC(=O)O)C(=O)N2 [Compound 5]", "MEASUREMENT_TARGET": "ASGPR receptor on the cell surface (HepG2 cells) (Homo sapiens)", "pEC50": "> 7.00"}
{"MOLECULE": "CC(C)C[C@@H]1NC(=O)[C@H](Cc2cnc[nH]2)NC(=O)[C@H](Cc2c[nH]c3ccccc23)NC(=O)[C@H](C)NC(=O)[C@@H]2CSSC[C@H](NC(=O)[C@H](Cc3c[nH]c4ccccc34)NC(=O)[C@H](C(C)C)NC(=O)[C@H](CC(C)C)NC(=O)[C@H](CCC(=O)O)NC(=O)CNC1=O)C(=O)N[C@@H]([C@@H](C)O)C(=O)N1CCC[C@@H]1C(=O)N1C[C@@H](NC(=O)COCCOCC(=O)NC[C@H]3OC[C@H](Nc4cncc(C(F)(F)F)n4)[C@@H](O)[C@H]3O)C[C@H]1C(=O)N[C@@H](CC(=O)O)C(=O)N2 [Compound 42]", "MEASUREMENT_TARGET": "ASGPR receptor on the cell surface (HepG2 cells) (Homo sapiens)", "pEC50": "> 7.00"}
{"MOLECULE": "CC(C)C[C@@H]1NC(=O)[C@H](Cc2c[nH]cn2)NC(=O)[C@H](Cc2c[nH]c3ccccc23)NC(=O)[C@H](C)NC(=O)[C@@H]2CSSC[C@H](NC(=O)[C@H](Cc3c[nH]c4ccccc34)NC(=O)[C@H](C(C)C)NC(=O)[C@H](CC(C)C)NC(=O)[C@H](CCC(=O)O)NC(=O)CNC1=O)C(=O)N[C@@H]([C@@H](C)O)C(=O)N1CCC[C@@H]1C(=O)N1C[C@@H](NC(=O)c3ccc(N4CCC(CN5CCN(C[C@H]6OC[C@H](Nc7cncc(C(F)(F)F)n7)[C@@H](O)[C@H]6O)CC5)CC4)cc3)C[C@H]1C(=O)N[C@@H](CC(=O)O)C(=O)N2 [Compound 68]", "MEASUREMENT_TARGET": "ASGPR receptor on the cell surface (HepG2 cells) (Homo sapiens)", "pEC50": "> 7.00"}

* * *

MEASUREMENT_TARGET: ASGPR (Homo sapiens, UniProt P07306)
Sequence (P07306 whole entry): as the sequence (P07306 whole entry) above
MEASUREMENT_NOTES: Affinity to ASGPR by surface plasmon resonance (SPR)
# key: entry, value: Kd
MEASURE_NAME: Kd

{"SMILES_DATA": "N#Cc1cc(F)cnc1N[C@H]1[C@H]2OC[C@](CO)(O2)[C@H](O)[C@@H]1O", "MEASUREMENT_TARGET": "ASGPR (Homo sapiens, UniProt P07306)", "MEASURE_NAME": "Kd", "TEST_RESULT": "1 to 10 µM"}
{"SMILES_DATA": "CN(C)C[C@H]1OC[C@H](Nc2cncc(C(F)(F)F)n2)[C@@H](O)[C@H]1O", "MEASUREMENT_TARGET": "ASGPR (Homo sapiens, UniProt P07306)", "MEASURE_NAME": "Kd", "TEST_RESULT": "< 1 µM"}
{"SMILES_DATA": "O=C(O)COCCOCCOCC(=O)NC(COCCC(=O)NCCOCCOCCOCCOC[C@H]1OC[C@H](Nc2nccc(C(F)(F)F)n2)[C@@H](O)[C@H]1O)COCCC(=O)NCCOCCOCCOCCOC[C@H]1OC[C@H](Nc2nccc(C(F)(F)F)n2)[C@@H](O)[C@H]1O", "MEASUREMENT_TARGET": "ASGPR (Homo sapiens, UniProt P07306)", "MEASURE_NAME": "Kd", "TEST_RESULT": "< 0.1 µM"}
{"SMILES_DATA": "O[C@@H]1[C@H](O)[C@@H](Nc2cncc(C(F)(F)F)n2)CO[C@@H]1CNc1cnccn1", "MEASUREMENT_TARGET": "ASGPR (Homo sapiens, UniProt P07306)", "MEASURE_NAME": "Kd", "TEST_RESULT": "< 1 µM"}
{"SMILES_DATA": "CC(C)C[C@@H]1NC(=O)[C@H](Cc2cnc[nH]2)NC(=O)[C@H](Cc2c[nH]c3ccccc23)NC(=O)[C@H](C)NC(=O)[C@@H]2CSSC[C@H](NC(=O)[C@H](Cc3c[nH]c4ccccc34)NC(=O)[C@H](C(C)C)NC(=O)[C@H](CC(C)C)NC(=O)[C@H](CCC(=O)O)NC(=O)CNC1=O)C(=O)N[C@@H]([C@@H](C)O)C(=O)N1CCC[C@@H]1C(=O)N1C[C@@H](NC(=O)CCN3CCN(CC(=O)NC[C@H]4OC[C@H](Nc5cncc(C(F)(F)F)n5)[C@@H](O)[C@H]4O)CC3)C[C@H]1C(=O)N[C@@H](CC(=O)O)C(=O)N2", "MEASUREMENT_TARGET": "ASGPR (Homo sapiens, UniProt P07306)", "MEASURE_NAME": "Kd", "TEST_RESULT": "0.1 to 0.5 µM"}
{"SMILES_DATA": "COc1cccc(-c2cn(C[C@H]3OC[C@H](Nc4nccc(C(F)(F)F)n4)[C@@H](O)[C@H]3O)nn2)c1", "MEASUREMENT_TARGET": "ASGPR (Homo sapiens, UniProt P07306)", "MEASURE_NAME": "Kd", "TEST_RESULT": "< 1 µM"}
{"SMILES_DATA": "COCCO[C@@H]1O[C@H](CO)[C@H](O)[C@H](O)[C@H]1Nc1cncc(C(F)(F)F)n1", "MEASUREMENT_TARGET": "ASGPR (Homo sapiens, UniProt P07306)", "MEASURE_NAME": "Kd", "TEST_RESULT": "1 to 10 µM"}
{"SMILES_DATA": "C[C@@H]1O[C@H](CO)[C@H](O)[C@H](O)[C@H]1Nc1nc(Cl)ns1", "MEASUREMENT_TARGET": "ASGPR (Homo sapiens, UniProt P07306)", "MEASURE_NAME": "Kd", "TEST_RESULT": "1 to 10 µM"}
{"SMILES_DATA": "OC[C@@]12CO[C@@H](O1)[C@H](Nc1nccc(C(F)(F)F)c1F)[C@@H](O)[C@H]2O", "MEASUREMENT_TARGET": "ASGPR (Homo sapiens, UniProt P07306)", "MEASURE_NAME": "Kd", "TEST_RESULT": "10 to 100 µM"}
{"SMILES_DATA": "O=C(CCOCC(COCCC(=O)NCCOCCOCCOCCOC[C@@]12CO[C@@H](O1)[C@H](Nc1nccc(C(F)(F)F)n1)[C@@H](O)[C@H]2O)NC(=O)COCCOCCOCCNc1ccc([N+](=O)[O-])cc1[N+](=O)[O-])NCCOCCOCCOCCOC[C@@]12CO[C@@H](O1)[C@H](Nc1nccc(C(F)(F)F)n1)[C@@H](O)[C@H]2O", "MEASUREMENT_TARGET": "ASGPR (Homo sapiens, UniProt P07306)", "MEASURE_NAME": "Kd", "TEST_RESULT": "< 0.1 µM"}
